For each entry below, report its composite z-score value.
Target: Neurogenic locus notch homolog protein 2 (Homo sapiens)
Test: Notch2 binders on small-molecule microarrays, primary screen, biochemical, small-molecule microarray, 635 nm fluorescence, stem cell growth factors (AID 1073)
Details: Notch2 binding, higher = more signal
Number only, no unit.

Task: # value lookup — system Neurogenic locus notch homolog protein 2 (Homo sapiens), readout composite z-score, item CN1C=C(C(=O)OCCS(C)(=O)=O)C(C(=O)OCCS(C)(=O)=O)=CC(CCCO)=CC1c1cccs1 (centres undefined)
Output: 0.907

Task: Do the same for "C=CCNC(=O)[C@@H]1[C@H]2C(=O)O[C@H](c3ccccc3)[C@H](c3ccccc3)N2[C@H](c2ccc(O)cc2)[C@@]12C(=O)Nc1ccccc12" please
Output: -0.554

Task: Do the same for "NCCCCCCNC(=O)[C@@H]1C[C@@H]2C(=O)N[C@@H](Cc3ccccc3)C(=O)N2[C@@H]1c1ccc(O)cc1" please
Output: 0.179

Task: Do the same for "NC(=O)NCC#Cc1ccc2c(c1)[C@]1(C(=O)N2)[C@H](c2ccc(OCCO)cc2)N2[C@H](c3ccccc3)[C@H](c3ccccc3)OC(=O)[C@H]2[C@@H]1C(=O)Nc1nc2ccccc2s1" please
Output: -0.442

###

Test: small-molecule binders of probe aLefty1, primary screen, biochemical, small-molecule microarray, 635/667 nm fluorescence (AID 1153);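 also: score merges spot fluorescence with signal-to-noise ratio from the scanned slide images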
Conditions: higher = more signal
For each entry below, report its composite z-score value.

Task: Consider the compound shown here: "CC(C)(C)OC(=O)CC[C@]1(C(=O)NCc2ccccc2)N=C(c2ccc(OCCCO)cc2)O[C@H]1c1ccccc1N=[N+]=[N-]" What is its recorded composite z-score?
Output: 0.598

Task: Do the same for "O=c1n(-c2ccccc2)c(=O)n2n1CC(COc1ccccc1)=C1[C@@H](CCc3ccccc3)OB(O)C[C@@H]12" please
Output: -0.206

Task: Do the same for "CN(C)CCCC[C@@H]1NC(=O)[C@@H]2C[C@H](C(=O)NCCCCCNC(=O)CS)[C@H](c3cccc(OCCO)c3)N2C1=O" please
Output: 0.2

Task: Do the same for CN1C=C(C(=O)OCCS(C)(=O)=O)C(C(=O)OCCS(C)(=O)=O)=CC(CCCO)=CC1c1cccs1 (centres undefined) please
Output: -0.0011

Task: Do the same for "CC(C)(C)OC(=O)CC[C@@]12N=C(c3ccc(OCCCO)cc3)O[C@@H]1c1ccccc1CN(Cc1ccccc1)C2=O" please
Output: 0.33

Task: Do the same for "CO[C@H]1O[C@H](CO)[C@@H](OC(=O)Nc2ccccc2)[C@H](OC(=O)Nc2ccc3c(c2)OCO3)[C@H]1OC(=O)Nc1ccc2c(c1)OCO2" please
Output: 0.57

Task: Do the same for "O=C1c2ccccc2[C@@]2(Cc3ccccc3N(CC(F)(F)F)C2=O)[C@H](c2ccc(CO)cc2)N1Cc1ccccc1C(F)(F)F" please
Output: -0.23

Task: Do the same for CC(CO)N1C(=O)[C@@H]2C3C(=O)OCCC/C=C\[C@H]3OC23C=CCN(Cc2ccccc2)C(=O)[C@@H]13 (some centres undefined) please
Output: -0.24

Task: Do the same for "C=CC[C@]1(C(=O)N(C)C)N=C(c2ccc(OCCCO)cc2)O[C@H]1c1ccccc1CN=[N+]=[N-]" please
Output: -0.237

Task: Do the same for "C=CCNC(=O)[C@H]1[C@@H]2C(=O)O[C@@H](c3ccccc3)[C@@H](c3ccccc3)N2[C@@H](c2ccc(OCCO)cc2)[C@]12C(=O)Nc1ccc(C#CCCO)cc12" please
Output: 0.0793

Task: Do the same for "C=C(COC)C(=O)CC[C@H](OC(=O)c1cccnc1)c1cccc(OCCO)c1" please
Output: 0.75

Task: Do the same for CC(C)C[C@@H]1NC(=O)[C@@]23C(=O)N[C@@H](Cc4ccccc4)C2[C@H](C)[C@@]2(C)O[C@H]2C3/C=C/CC/C=C/CNC(=O)[C@@H](C)NC1=O (some centres undefined) please
Output: -0.0984

Task: Do the same for "COc1ccc(CCNC(=O)[C@@]2(Sc3ccc(C)cc3)CC(=O)N(Cc3ccccc3)[C@@H]2c2ccc(CO)cc2I)cc1" please
Output: -0.321

Task: Do the same for "COCCCN1C(=O)[C@@]2(Cc3ccccc31)c1ccccc1C(=O)N(Cc1ccccc1Cl)[C@H]2c1ccc(CO)cc1" please
Output: 0.0053

Task: Do the same for "Cc1ccc(S[C@]2(C(=O)NC3CC3)CC(=O)N(Cc3ccccc3C(F)(F)F)[C@@H]2c2ccc(CO)cc2I)cc1" please
Output: 0.309

Task: Do the same for "C=C(COC)C(=O)CC[C@@H](OC(=O)c1ccccc1-c1ccccc1C(=O)O)c1cccc(OCCO)c1" please
Output: -0.144

Task: Do the same for "C=C(C(=O)CC[C@H](OC(C)=O)c1ccc(CO)o1)C(C)C" please
Output: -0.215

Task: Do the same for C=CCC(OC(C)=O)[C@@H]1[C@@H](N(Cc2cc3ccccc3o2)C(=O)c2ccc(-c3ccccc3)cc2)c2cc(OCCCO)ccc2N1C(=O)c1ccc(-c2ccccc2)cc1 (some centres undefined) please
Output: 0.0038

Task: Do the same for "C=C(C1=CCN(S(=O)(=O)c2ccc(C)cc2)C1)[C@@H](OC(C)=O)[C@@H]1CCCN1S(=O)(=O)c1ccccc1[N+](=O)[O-]" please
Output: -0.109

Task: Do the same for "C=C(CCCC)/C(=C/C[C@@H](OC(=O)c1ccncc1)c1ccc(OCCO)cc1)c1cnc2ccccc2c1" please
Output: 0.199

Task: Do the same for CC(C)N1CC=CC23O[C@@H]4/C=C\CCCOC(=O)C4[C@H]2C(=O)N(CCCO)[C@@H]3C1=O (some centres undefined) please
Output: 0.236

Task: Do the same for "COCCOC(=O)N1C(=O)[C@@]2(c3ccccc31)[C@H](C(=O)Nc1nc3ccccc3s1)[C@H]1C(=O)O[C@H](c3ccccc3)[C@H](c3ccccc3)N1[C@@H]2c1ccc(O)cc1" please
Output: 0.577

Task: Do the same for "O=C1N(CCS(=O)(=O)c2ccccc2)Cc2ccccc2[C@@H]2OC(c3ccc(OCCCO)cc3)=N[C@]12Cc1ccccc1" please
Output: 0.327

Task: Do the same for "COCCOC(=O)N1C(=O)[C@@]2(c3cc(C#CCNC(N)=O)ccc31)[C@H](c1ccccc1OCCO)N1[C@H](c3ccccc3)[C@H](c3ccccc3)OC(=O)[C@H]1[C@@H]2C(=O)Nc1nc2ccccc2s1" please
Output: 0.0943

Task: Do the same for "C=CC[C@@]1(C(=O)NCc2ccccc2)N=C(c2ccc(OCCCO)cc2)O[C@@H]1c1ccccc1" please
Output: 0.399

Task: Do the same for "COc1ccc(/C=C/C(=O)c2cccc(OCC(=O)OC(C)(C)C)c2)cc1" please
Output: -0.113

Task: Do the same for CC(C)C(CO)N1C(=O)[C@@H]2C3C(=O)OCCC/C=C\[C@H]3OC23C=CCN(C(C)C)C(=O)[C@@H]13 (some centres undefined) please
Output: -0.142

Task: Do the same for "CC(C)[C@@H](C(=O)O)n1cc(-c2ccccn2)nn1" please
Output: -0.0559

Task: Do the same for "CC(C)C[C@@H]1NC(=O)[C@@H]2C[C@H](C(=O)NCCCCCNC(=O)CS)[C@H](c3cccc(OCCO)c3)N2C1=O" please
Output: 0.348

###

Experiment: MM1S myeloma cell viability, profiling panel, resazurin fluorescence, basal, 24 h, PK04 Diversity Set (AID 1174);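 also: MM1S multiple myeloma cell line; test concentration not given here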
Settings: higher = more signal, called active from +8 up or from −8 down
For each entry below, report its z-score value.
Number only, no unit.

Task: Consider the compound shown here: "COc1ccc(C#Cc2ccc3c(c2)[C@]2(C(=O)N3)[C@H](c3ccc(O)cc3)N3[C@H](c4ccccc4)[C@H](c4ccccc4)OC(=O)[C@H]3[C@@H]2C(N)=O)cc1" What is its recorded z-score?
Output: -6.51

Task: Do the same for "COCCCN1C(=O)[C@@]2(Cc3ccccc31)c1ccccc1C(=O)N(Cc1ccccc1Cl)[C@H]2c1ccc(CO)cc1" please
Output: 0.686

Task: Do the same for "CO[C@H]1O[C@H](CO)[C@@H](OC(=O)CCc2ccccc2)[C@@H]2OC(=O)[C@H](Cc3ccccc3)C/C=C/C[C@@H](Cc3ccccc3)C(=O)O[C@@H]12" please
Output: 0.832

###

System: Human papillomavirus type 1a protein E7 (residues 44-93)
Test: HPV1a E7 fragment binders on microarrays, primary screen, biochemical, small-molecule microarray, residues 44-93, 635 nm fluorescence (AID 1108);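 also: E7 fragment applied at 1 µg/mL in TBST for 1 h at 4 C; score combines spot fluorescence with its signal to noise ratio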
Details: small-molecule microarray binding, fluorescence 635 nm; higher = more signal
Lab note: compare composite z-score against 0.3. Equal or greater, write 1.0. Smaller, write 0.0.

Task: Item C=CCC(OC(C)=O)[C@@H]1[C@@H](N(Cc2ccc(-c3ccccc3)cc2)C(=O)c2ccc(-c3ccccc3)cc2)c2cc(OCCCO)ccc2N1C(=O)c1ccc(-c2ccccc2)cc1 (some centres not stated) with composite z-score of 0.3 or above?
Output: 0.0

Task: Do the same for "Cc1ccc(S[C@]2(C(=O)NCCN3CCOCC3)CC(=O)N(Cc3cc(C(F)(F)F)cc(C(F)(F)F)c3)[C@@H]2c2ccc(CO)cc2)cc1" please
Output: 0.0

Task: Do the same for "C=C(C(=O)CC[C@@H](OC(C)=O)c1ccccc1OCCO)C(C)C" please
Output: 0.0

Task: Do the same for "C=CCC1(CC=C)C[C@H]2CO[C@H](c3ccc(OC)cc3)N2C1=O" please
Output: 0.0

Task: Do the same for "COCCOC(=O)N1C(=O)[C@@]2(c3cc(C#CCNC(N)=O)ccc31)[C@H](C(=O)NC[C@H](O)c1ccccc1)[C@H]1C(=O)O[C@H](c3ccccc3)[C@H](c3ccccc3)N1[C@@H]2c1ccc(O)cc1" please
Output: 1.0

Task: Do the same for "COc1ccc([Si](C)(C)[C@H]2[C@H](CC(=O)N3Cc4ccccc4C[C@H]3CO)O[C@@]3(C(=O)N(Cc4cccc(N5C(=O)COc6ccccc65)c4)c4ccccc43)[C@@H]2C)cc1" please
Output: 1.0
